Where do these numbers come from? They come from PubChem BioAssay (NCI).

// growth lookup, one value per entry
Test system: HCT-116 colon
Assay: NCI-60 one-dose screen, 48 h (100 = growth as untreated, 0 = no growth, -100 = all killed)
Conditions: 10 µM unless noted
About 83,000 compounds went through this panel and 20% of them were active in at least one assay; those are over-represented in the sample as a whole.
Note: unit % is implicit; provide only the numeric part.

| compound | growth (%) |
| --- | --- |
| Nc1nc(Nc2ccccc2SSc2ccccc2Nc2nc(N)nc(-c3cccc(Br)c3)n2)nc(-c2cccc(Br)c2)n1 | 47.8 |
| COc1cc(-c2nc(-c3ccccc3)[nH]c2-c2ccnc(NCCCNS(=O)(=O)c3cccc(F)c3)n2)ccc1Cl | 18.8 |
| C#CCNC1CCC(c2csc(C#C)n2)=C1C (centres undefined) | 80.9 |
| O=C(O)c1ccc(-n2cc(CNc3cc(F)c(F)c(F)c3)c(-c3ccc(F)cc3)n2)cc1 | 88.5 |

The reported growth of the compound Nc1ncc(-c2ccc(NS(=O)(=O)c3ccc(Cl)c(Cl)c3)cc2)[nH]1 was 99.3

Kindly note the recorded growth for CC1=NC2=NC(=O)/C(=C3/N=C(C)C=C(c4ccccc4)N3N)NN2C(c2ccccc2)=C1 , which is 102

* * *

Tested on: SK-MEL-28 melanoma
Test: NCI-60 one-dose screen, 48 h (100 = growth as untreated, 0 = no growth, -100 = all killed)
Conditions: 10 µM unless noted
About 83,000 compounds went through this panel and 20% of them were active in at least one assay; those are over-represented in the sample as a whole. Calls of active or inactive are those of the source. How the source made its calls: active means growth percent below 10; inactive means the rest.
quantityName: growth

Example compounds with recorded growth:
| compound | growth |
| --- | --- |
| Oc1ccc(CSc2nnc(-c3ccc(Cl)cc3)n2-c2ccccc2)c2cccnc12 | 42.4% (inactive) |
| O=C1C(c2ccccc2)=C(N2CCc3ccccc32)OC1(Cl)Cl | 31.8% (inactive) |
| O=C(CN1CCN(c2cc(=O)n(-c3ccccc3)c3ccccc23)CC1)Nc1cccc(C(F)(F)F)c1 | 75.1% (inactive) |

For record O=C(Nc1nc2ccc([N+](=O)[O-])cc2s1)Nc1ccccc1Br the listed growth is 48.8% (inactive)

Entry under test: CN(C)CCCOc1ccc2c(c1)CN(C(=O)c1cc(C(=O)N3Cc4cccc(F)c4C3)ccc1O)C2 . Its growth was 104% (inactive)

Notebook: C#Cc1nc(C(C)=O)cs1 , growth read as 106% (inactive)

Data point: CC1(C)CC[C@]2(CN)CC[C@]3(C)C(=CC[C@@H]4[C@@]5(C)CCCNC(C)(C)[C@@H]5CC[C@]43C)[C@H]2C1 ; growth = 103% (inactive)

# growth of Cn1cc(-c2cc(N)n3nc(-c4cn(C)c5ccccc45)cc3n2)c2ccccc21 = 95.1% (inactive)

So for Cc1ccc(-c2cc3nc(C(Cl)Cl)nc(-c4cccs4)n3n2)cc1 , the logged growth turned out to be 87.4% (inactive)

Entry CCOC(=O)c1c(Nc2ccccc2)nn2c(-c3ccccc3)ccnc12 , growth reported as 101% (inactive)

Entry COc1ccccc1-n1cc(C#N)c(N)c1C(=O)c1ccc(C)cc1 ; growth = 73.9% (inactive)

// C/C(=N\O)[C@H]1C[C@]23CC[C@]4(C)[C@H](CC[C@@H]5[C@@]6(C)CC/C(=N/O)C(C)(C)[C@@H]6CC[C@]54C)[C@H]2[C@H](C)C1(C)OC3 : growth value = 110% (inactive)

Please fill in: growth reported for O=C1[C@H]2Cc3c([nH]c4ccccc34)[C@@H](c3ccc(Cl)cc3)N2C(=O)CN1C1CCN(Cc2ccccc2)CC1 = 67.8% (inactive)
